Attribution: ChEMBL document CHEMBL5058577

Can you tell me Population Normal (%) for the items I'm about to list?
- Tested on: HEK-293T
- ASSAY INFO: Multiplex assay against HEK293T
- Assay type: toxicity, cell-based
- EXPERIMENTAL SETUP: human, 12 h, 1 µM, compound concentration 1 uM, replicate 2
Quick note: give the figure in %, leave out the unit.

[in] GET /values?readout=Population Normal (%)&item= Cl.Clc1ccc2nsnc2c1NC1=NCCN1 [TIZANIDINE HYDROCHLORIDE]
[out] 90

[in] Record: CSc1ccccc1N1CCN(CCCCCC(=O)NC2CCCc3ccccc32)CC1.Cl (stereo unspecified)
[out] 87

[in] Same question, Cc1ccccc1C(=O)Nc1ccc(C(=O)N2CCCC(N(C)C)c3ccccc32)cc1.Cl (stereo unspecified) this time
[out] 93

[in] What do you get for `CCCC(CCC)C(=O)O` ?
[out] 94

[in] One more molecule: `COc1c(C)cc(NC(=O)c2nn(Cc3ccc(F)cc3)c3c2CN(C(=O)c2ccc[nH]2)C[C@]3(C)C(N)=O)cc1C`
[out] 94

[in] Repeat with `Cc1ccc(F)cc1C(=O)Nc1ccc(C(=O)N2Cc3cccn3Cc3ccccc32)c(Cl)c1`
[out] 94

[in] Please answer likewise for `COc1cc(C(=O)N(CCCc2ccccc2)Cc2ccc(CC(=O)O)cc2)cc(OC)c1C`
[out] 95

[in] Now consider `O=C(O)c1cc2ccccc2c(Cc2c(O)c(C(=O)O)cc3ccccc23)c1O` .
[out] 93

[in] Lookup `COc1ccccc1N1CCN(CCCCNC(=O)c2ccc3ccccc3c2)CC1.Cl`
[out] 94

[in] Now consider `O=C(O)Cc1ccccc1Nc1c(Cl)cccc1Cl` .
[out] 89

[in] Now consider `CCNC1(C(N)=O)CCN(c2ncnc3c2nc(-c2ccccc2Cl)n3-c2ccc(Cl)cc2)CC1` and answer again.
[out] 93

[in] Now the same for `CN(C)CCCc1cc(C(=O)Nc2ccc(-c3ccncc3)cc2)ccc1O.Cl.Cl`
[out] 91

[in] Entry to check: CCCN1CCC[C@@H]2Cc3n[nH]cc3C[C@H]21.Cl [QUINPIROLE HYDROCHLORIDE]
[out] 96

[in] Now the same for `O=C(NCCO)c1cccc(-c2cc(Nc3ccc(OC(F)(F)F)cc3)ncn2)c1`
[out] 93

[in] Would you mind doing CNC[C@H](O)c1ccc(O)c(O)c1 [EPINEPHRINE] as well?
[out] 93

[in] Try this molecule too: `CCCn1c(=O)c2[nH]c(C3CCCC3)nc2n(CCC)c1=O`
[out] 96

[in] `C[C@@H]1C[C@H]2[C@@H]3CCC4=CC(=O)C=C[C@]4(C)[C@@]3(F)[C@@H](O)C[C@]2(C)[C@@]1(O)C(=O)CO` , same question.
[out] 91

[in] Can you check `C[C@H](NC(=O)c1c(C(F)F)nn(C)c1Oc1cccc(C(F)(F)F)c1)c1ccc(C(=O)O)cc1` next?
[out] 94

[in] Proceed to `CC(=O)NCCc1c(Cc2ccccc2)[nH]c2ccccc12`
[out] 91

[in] Proceed to CN1CCN2c3ncccc3Cc3ccccc3C2C1 (stereo unspecified)
[out] 92

[in] Field entry: COc1ccc2c(c1)C(C(=O)N(Cc1ccc(N(C)C)cc1)c1ccc(C(C)C)cc1)CCC2.Cl (stereo unspecified)
[out] 95

[in] And the next one, `CCOc1c2c(c(OCC)c3ncccc13)CN(c1ccc(CS(=O)(=O)NC(=O)Cc3ccccc3OC)cc1C)C2=O` ?
[out] 94

[in] Cc1ccc(C(C)(O)c2nc3ccccc3s2)c(C)c1 (stereo unspecified) , same question.
[out] 94

[in] And for `CC[C@H]1OC(=O)[C@H](C)[C@@H](O[C@H]2C[C@@](C)(OC)[C@@H](O)[C@H](C)O2)[C@H](C)[C@@H](O[C@@H]2O[C@H](C)C[C@H](N(C)C)[C@H]2O)[C@@]2(C)CC(C)=C(O2)[C@H](C)[C@@H](O)[C@]1(C)O` ?
[out] 92

[in] Thanks! And `N[C@@]1(C(=O)O)CO[C@H]2[C@H](C(=O)O)[C@H]21` ?
[out] 89

[in] What do you get for `CC1(COc2ccc3c(c2)ncn3-c2ccc3cccc(N4CCC(N)CC4)c3n2)COC1` ?
[out] 93

[in] Param item: `Cc1ccc(/C(=C\CN2CCCC2)c2ccccn2)cc1`
[out] 94

[in] For `CN1CCN(c2nc3cc(C(F)(F)F)ccc3n3cccc23)CC1.O=C(O)/C=C\C(=O)O.O=C(O)/C=C\C(=O)O` then?
[out] 94

[in] Next up: `COc1cc(NC(=O)CCN2CCC(OC(=O)Nc3ccccc3-c3ccccc3)CC2)c(Cl)cc1CNC[C@H](O)c1ccc(O)c2[nH]c(=O)ccc12`
[out] 91

[in] Here is the next molecule: `Cc1nc2ccc(Oc3ccc(F)cc3)cc2c(=O)n1C[C@H]1CCCN(C(C)C)C1.Cl`
[out] 72

[in] Next molecule up: O=S(=O)(c1ccccc1)c1cnc2c(N3CCNCC3)cccc2c1 [INTEPIRDINE]
[out] 89

[in] And the next one, `N#Cc1c(N)nc(SCc2csc(-c3ccc(Cl)cc3)n2)c(C#N)c1-c1ccc(OCCO)cc1` ?
[out] 95

[in] Repeat with `O=C1COc2nccc(-c3ccccc3F)c2CN1Cc1cc(C(F)(F)F)cc(C(F)(F)F)c1`
[out] 89

[in] Next record, please: `C[C@H]1[C@H]2CC[C@H]3[C@@H]4CC=C5C[C@@H](N(C)C)CC[C@]5(C)[C@H]4CC[C@]23CN1C`
[out] 91

[in] Another molecule to look at: `CN(C)c1ccnc2sc3c(=O)n(N4CCCCCC4)cnc3c12`
[out] 91

[in] Another molecule to check: `O=C(NCC(=O)N1CC[C@H](N[C@H]2CC[C@@](O)(c3ccc(-c4ncccn4)cn3)CC2)C1)c1cccc(C(F)(F)F)c1`
[out] 93

---

- System: HEK-293T
- ASSAY INFO: Multiplex assay against HEK293T
- Type: toxicity, cell-based
- EXPERIMENTAL SETUP: human, 48 h, 1 µM, compound concentration 1 uM, replicate 2
I'd appreciate it if you could supply Population Normal (%) values for the items below.
Answer format: numeric, % implied, no suffix.

[in] Requested read-out Population Normal (%), target or system HEK-293T, entry `CCOc1c2c(c(OCC)c3ncccc13)CN(c1ccc(CS(=O)(=O)NC(=O)Cc3ccccc3OC)cc1C)C2=O`
[out] 98

[in] `N#Cc1c(N)nc(SCc2csc(-c3ccc(Cl)cc3)n2)c(C#N)c1-c1ccc(OCCO)cc1` , same question.
[out] 96

[in] Same lookup for COc1ccc2c(c1)C(C(=O)N(Cc1ccc(N(C)C)cc1)c1ccc(C(C)C)cc1)CCC2.Cl (stereo not drawn) , please.
[out] 95

[in] Now the compound Cc1ccc(C(C)(O)c2nc3ccccc3s2)c(C)c1 (stereo not drawn)
[out] 96

[in] Try this compound too: `CN1CCN(c2nc3cc(C(F)(F)F)ccc3n3cccc23)CC1.O=C(O)/C=C\C(=O)O.O=C(O)/C=C\C(=O)O`
[out] 94

[in] Subsequent entry: `Cc1nc2ccc(Oc3ccc(F)cc3)cc2c(=O)n1C[C@H]1CCCN(C(C)C)C1.Cl`
[out] 92

[in] Another: `CCCC(CCC)C(=O)O`
[out] 96

[in] Another compound to look at: Cc1ccccc1C(=O)Nc1ccc(C(=O)N2CCCC(N(C)C)c3ccccc32)cc1.Cl (stereo not drawn)
[out] 95

[in] Can you check CN1CCN2c3ncccc3Cc3ccccc3C2C1 (stereo not drawn) next?
[out] 96

[in] Now this one: `N[C@@]1(C(=O)O)CO[C@H]2[C@H](C(=O)O)[C@H]21`
[out] 92

[in] Please do the same for `CN(C)CCCc1cc(C(=O)Nc2ccc(-c3ccncc3)cc2)ccc1O.Cl.Cl` as well.
[out] 94

[in] Further, for `Cc1ccc(F)cc1C(=O)Nc1ccc(C(=O)N2Cc3cccn3Cc3ccccc32)c(Cl)c1` ?
[out] 95

[in] Same question for `COc1ccccc1N1CCN(CCCCNC(=O)c2ccc3ccccc3c2)CC1.Cl` please.
[out] 94

[in] Now try `CC(=O)NCCc1c(Cc2ccccc2)[nH]c2ccccc12` .
[out] 93

[in] What do you get for CSc1ccccc1N1CCN(CCCCCC(=O)NC2CCCc3ccccc32)CC1.Cl (stereo not drawn) ?
[out] 93

[in] Same for `O=C1COc2nccc(-c3ccccc3F)c2CN1Cc1cc(C(F)(F)F)cc(C(F)(F)F)c1`
[out] 95

[in] Also `C[C@H]1[C@H]2CC[C@H]3[C@@H]4CC=C5C[C@@H](N(C)C)CC[C@]5(C)[C@H]4CC[C@]23CN1C` ?
[out] 95

[in] Now this one: `C[C@@H]1C[C@H]2[C@@H]3CCC4=CC(=O)C=C[C@]4(C)[C@@]3(F)[C@@H](O)C[C@]2(C)[C@@]1(O)C(=O)CO`
[out] 96
